Ref: patent US20260116991A1

- TARGET SYSTEM: T1, human GPC3-His protein (human, UniProt P51654 25-559, limits assumed)
- T1 construct: also called human GPC3 protein; not shown: His tag
- RUN DESCRIPTION: SPR, antibody captured on Protein A chip, human GPC3-His injected, 1:1 Langmuir model;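 also: flow cell at 25 °C, antigen injected for 240 s at five twofold dilutions starting at 200 nM, dissociation followed up to 600 s, double-referenced sensorgrams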
READOUT TYPE: pKd
Answers are plain numbers, as −log10 of the molar value.

Examples from the recorded data:
hAb006LH1L1b (antibody, human IgG1, V domains shown, Humanized F3.38.7) VH: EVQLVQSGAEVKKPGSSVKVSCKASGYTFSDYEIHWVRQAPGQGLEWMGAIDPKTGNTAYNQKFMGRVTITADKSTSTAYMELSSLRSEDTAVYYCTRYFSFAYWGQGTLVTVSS VL: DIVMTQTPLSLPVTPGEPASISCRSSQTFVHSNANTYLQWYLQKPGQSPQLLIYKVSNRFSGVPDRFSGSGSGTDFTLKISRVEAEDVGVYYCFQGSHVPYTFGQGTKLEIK    8.13
hAb003LH2L1b (antibody, human IgG1, V domains shown, Humanized F2.154.1) VH: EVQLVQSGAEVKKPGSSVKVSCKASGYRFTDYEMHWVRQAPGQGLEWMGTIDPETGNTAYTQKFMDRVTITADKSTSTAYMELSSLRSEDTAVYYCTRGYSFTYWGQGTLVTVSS VL: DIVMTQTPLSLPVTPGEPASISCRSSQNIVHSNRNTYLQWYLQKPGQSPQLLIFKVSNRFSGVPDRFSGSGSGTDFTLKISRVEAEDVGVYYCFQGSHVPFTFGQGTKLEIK    8.68

# next binder below
So what does the record say about pKd for hAb003LH1L1 (antibody, human IgG1, V domains shown, Humanized F2.154.1) VH: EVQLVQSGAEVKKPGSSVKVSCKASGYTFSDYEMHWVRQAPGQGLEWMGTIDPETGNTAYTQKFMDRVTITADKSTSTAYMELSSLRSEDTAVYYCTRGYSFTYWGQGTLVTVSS VL: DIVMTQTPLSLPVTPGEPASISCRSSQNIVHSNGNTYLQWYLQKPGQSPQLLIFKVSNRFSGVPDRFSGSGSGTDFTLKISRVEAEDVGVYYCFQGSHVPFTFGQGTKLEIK ? 8.71
